tested on: up to 32 different microorganisms; experiment: in vitro antibacterial activity (MIC), agar dilution on Brain Heart Infusion (BHI) agar with Steers replicator; type: cell-based; settings: Staphylococcus aureus ATCC 6538P (code AA); unit assumed
A collection of molecules and their measured MIC

MOLECULE: CC[C@H]1OC(=O)[C@H](C)C(=O)[C@H](C)[C@@H](O[C@@H]2O[C@H](C)C[C@H](N(C)C)[C@H]2O)[C@@](C)(OCCCc2cnc3ccccc3c2)C[C@@H](C)C2=NCCN3C(=O)O[C@@]1(C)[C@H]3[C@H]2C
EXPERIMENTAL_SYSTEM: up to 32 different microorganisms
ENDPOINT_UNIT: µg/mL
MIC: 0.1

MOLECULE: CC[C@H]1OC(=O)[C@H](C)C(=O)[C@H](C)[C@@H](O[C@@H]2O[C@H](C)C[C@H](N(C)C)[C@H]2O)[C@@](C)(OCC(O)C#N)C[C@@H](C)C(=O)[C@H](C)[C@@H](O)[C@]1(C)O (stereo partly drawn)
EXPERIMENTAL_SYSTEM: up to 32 different microorganisms
ENDPOINT_UNIT: µg/mL
MIC: 0.2

MOLECULE: CCC1OC(=O)C(C)C(=O)C(C)C(OC2OC(C)CC(N(C)C)C2O)C(C)(OCC=Cc2cncc3ccccc23)CC(C)C(=O)C(C)C2NC(=O)OC12C (stereo not drawn)
EXPERIMENTAL_SYSTEM: up to 32 different microorganisms
ENDPOINT_UNIT: µg/mL
MIC: 0.2

MOLECULE: CC[C@H]1OC(=O)[C@H](C)C(=O)[C@H](C)[C@@H](O[C@@H]2O[C@H](C)C[C@H](N(C)C)[C@H]2O)[C@@](C)(OCC#N)C[C@@H](C)C(=O)[C@H](C)[C@@H](O)[C@]1(C)O
EXPERIMENTAL_SYSTEM: up to 32 different microorganisms
ENDPOINT_UNIT: µg/mL
MIC: 3.1

MOLECULE: CCC1OC(=O)C(C)C(=O)C(C)C(OC2OC(C)CC(N(C)C)C2O)C(C)(OCC=Cc2cnc3ccc(Cl)cc3c2)CC(C)C(=O)C(C)C2NC(=O)OC12C (stereo not drawn)
EXPERIMENTAL_SYSTEM: up to 32 different microorganisms
ENDPOINT_UNIT: µg/mL
MIC: 0.05

MOLECULE: CC[C@H]1OC(=O)[C@H](C)C(=O)[C@H](C)[C@@H](O[C@@H]2O[C@H](C)C[C@H](N(C)C)[C@H]2O)[C@@](C)(OCC=Cc2ccccc2)C[C@@H](C)C(=O)[C@H](C)[C@H]2OC(=O)O[C@@]21C
EXPERIMENTAL_SYSTEM: up to 32 different microorganisms
ENDPOINT_UNIT: µg/mL
MIC: 0.1

MOLECULE: CCC1OC(=O)C(C)C(=O)C(C)C(OC2OC(C)CC(N(C)C)C2O)C(C)(OCC=Cc2cnc3ccccc3c2)CC(C)C(=O)C(C)C2N(CC=Cc3cnc4ccccc4c3)C(=O)OC12C (stereo not drawn)
EXPERIMENTAL_SYSTEM: up to 32 different microorganisms
ENDPOINT_UNIT: µg/mL
MIC: 3.1

MOLECULE: C=CCO[C@@]1(C)C[C@@H](C)C(=O)[C@H](C)[C@H]2NC(=O)O[C@]2(C)[C@@H](CC)OC(=O)[C@H](C)C(=O)[C@H](C)[C@H]1O[C@@H]1O[C@H](C)C[C@H](N(C)C)[C@H]1O
EXPERIMENTAL_SYSTEM: up to 32 different microorganisms
ENDPOINT_UNIT: µg/mL
MIC: 0.78

MOLECULE: CC[C@H]1OC(=O)[C@H](C)C(=O)[C@H](C)[C@@H](O[C@@H]2O[C@H](C)C[C@H](N(C)C)[C@H]2O)[C@@](C)(OCCNCc2ccncc2)C[C@@H](C)C(=O)[C@H](C)[C@@H](O)[C@]1(C)O
EXPERIMENTAL_SYSTEM: up to 32 different microorganisms
ENDPOINT_UNIT: µg/mL
MIC: 6.2

Origin of measurements: patent USRE39591E1
